MEASURED TARGET: T1, human CD28 (human, UniProt P10747 19-220, On cells CD28 is a disulfide linked homodimer and a glycoprotein; one copy of the chain is given.)
T1 construct: also called T-cell specific surface glycoprotein CD28
T1 sequence (P10747 19-220 limits assumed): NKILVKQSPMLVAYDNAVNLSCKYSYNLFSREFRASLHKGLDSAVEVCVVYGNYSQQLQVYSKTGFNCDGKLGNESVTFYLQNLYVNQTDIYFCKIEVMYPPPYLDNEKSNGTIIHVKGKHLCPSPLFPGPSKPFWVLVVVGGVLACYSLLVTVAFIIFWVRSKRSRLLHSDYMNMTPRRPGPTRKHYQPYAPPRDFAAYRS
ASSAY TEXT: flow cytometry, PE-conjugated antibody on fresh human peripheral blood cells, CD3/CD28 gating
OBSERVED PROPERTY: S/N Ratio

Record summary for exemplary anti-CD28 antibody AB7 (antibody, V domains shown, Mouse hybridoma monoclonal antibody; Conjugated to PE in the staining assays; also called antibody 7; clone 7) VH: KVQLQQSGAGLVKPGASVKLSCKASGYTFSDYIINWVKQRSGQGLEWIGWFYPGSGSINYNEKFKDKATLTADKSSSTVYMDLSRLTSEDSAVYFCARREDRGGYDAFDYWGQGTTLTVSS VL: DIQMTQSPASLSVSVGETVTITCRTSENIYSNLAWYQQKQGKSPQLLVYAATKLADGVPSRFSGSGSGTQYSLRINSLQPEDFGSYYCQHFWGTPWTFGGGTKLEIK : reported S/N Ratio = 249

Record summary for exemplary anti-CD28 antibody AB1 (antibody, V domains shown, Mouse hybridoma monoclonal antibody; also called antibody 1; clone 1) VH: QVHLQQSATELARPGASVKMSCKASGYTFTSYTMHWVKQRPGQGLEWIGYIDPGSGYSEFNHKFKDKSTLTADKSSSTAYMQLISLTSEDSAVYYCARRQDNSGYDSFDYWGQGTTLTVSS VL: DIQMTQSPASLSVSVGETVTITCRTSENIYSNLAWYQQKQGKSPQLLVYAATNLADGVSSRFSGSGSGIQYSLKINSLQSEDFGSYYCQHFWGIPWTFGGGTKLEIK : reported S/N Ratio = 212

Record summary for exemplary anti-CD28 antibody AB3 (antibody, V domains shown, Mouse hybridoma monoclonal antibody; Conjugated to PE in the staining assays; also called antibody 3; clone 3) VH: KVQLQQSGAGLVKPGASVKLSCKTSGYTFSDYIINWVKQRSGQGLEWIGWFYPGSGSINYNEKFKDKATLTADKSSSTVYMDLSRLTSEDSAVYFCARREDRGGYDAFDYWGQGTTLTVSS VL: DIQMTQSPASLSVSVGETVTITCRASENIYSNLAWYQQKQGKSPQLLVYAATKLADGVPSRFSGSGSGTQYSLRINSLQSEDFGSYYCQHFWGTPWTFGGGTKLEIK : reported S/N Ratio = 260
